# System: biotinyl-Val-oxazolone
# Test summary: self-aminoacylation, catalytic enhancement (BVO) (fold over background); higher = more active; k-Seq, kA / k0A0; sequences stand for … in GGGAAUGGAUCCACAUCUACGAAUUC…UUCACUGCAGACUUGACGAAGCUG
Variants at the floor of the assay were thinned out.
Values of self-aminoacylation greater than or equal to 0.9 map to MET; values below map to NOT MET.

Solved cases below.
Textbook exercise: given the entry UCACACUUCAAGCAAACGGUC [Fam1B.1 aminoacylation ribozyme variant] , state whether its self-aminoacylation is greater than or equal to 0.9.
NOT MET

Textbook exercise: given the entry AUUACCCUGGUCAUCGACUGU [Fam2.1 aminoacylation ribozyme variant] , state whether its self-aminoacylation is greater than or equal to 0.9.
NOT MET

Textbook exercise: given the entry ACACACGUCAAGCAAUCGGUC [Fam1B.1 aminoacylation ribozyme variant] , state whether its self-aminoacylation is greater than or equal to 0.9.
MET

Textbook exercise: given the entry UUUACCCUGGUGAUCGAGUGA [Fam2.1 aminoacylation ribozyme variant] , state whether its self-aminoacylation is greater than or equal to 0.9.
MET

Textbook exercise: given the entry AUUCACUUAGGUCAACGGGUG [Fam2.2 aminoacylation ribozyme variant] , state whether its self-aminoacylation is greater than or equal to 0.9.
MET

Textbook exercise: given the entry CCACACUUCAAGCUCUCGGUC [Fam1B.1 aminoacylation ribozyme variant] , state whether its self-aminoacylation is greater than or equal to 0.9.
MET

Consider the additional sequence presented here.
Textbook exercise: given the entry AAGUUUGCUAAUAGUGGCAAG [Fam3.1 aminoacylation ribozyme variant] , state whether its self-aminoacylation is greater than or equal to 0.9.
NOT MET

----------
Please respond with reported self-aminoacylation for every item in the list.
# System: biotinyl-Ile-oxazolone
# Test summary: self-aminoacylation, catalytic enhancement (BIO) (fold over background); higher = more active; k-Seq, kA / k0A0; sequences stand for … in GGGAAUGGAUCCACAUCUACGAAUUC…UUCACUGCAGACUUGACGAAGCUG
Fewer inactive variants are shown than the library holds.
Answers are plain numbers.

Answered examples (5):
The sequence listed as AUUACCCUAGGCAUCGAGUGA [Fam2.1 aminoacylation ribozyme variant] shows self-aminoacylation equal to 2.47

The sequence listed as CUACUUCAAACAUUCGGUCUG [Fam1A.1 aminoacylation ribozyme variant] shows self-aminoacylation equal to 0.994

The sequence listed as CCACACCUCAAGCAGUCGGUC [Fam1B.1 aminoacylation ribozyme variant] shows self-aminoacylation equal to 1.34

The sequence listed as AAGUUUGCUAAUCGUCGUAAG [Fam3.1 aminoacylation ribozyme variant] shows self-aminoacylation equal to 0.808

The sequence listed as AAGUUUGCUAAUAGUGGCAAA [Fam3.1 aminoacylation ribozyme variant] shows self-aminoacylation equal to 1.09

Record self-aminoacylation for all entries; do not skip any.
1. CCACCCUUCAAGCAAUCGGGC [Fam1B.1 aminoacylation ribozyme variant]
2. AUUACCCUGGUUAUCGAGGGA [Fam2.1 aminoacylation ribozyme variant]

2.06
1.55

----------
# Test system: biotinyl-Trp-oxazolone
# Test summary: self-aminoacylation, catalytic enhancement (BWO) (fold over background); higher = more active; k-Seq, kA / k0A0; sequences stand for … in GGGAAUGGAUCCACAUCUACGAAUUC…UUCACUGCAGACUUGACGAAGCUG
Fewer inactive variants are shown than the library holds.
Each entry falls into one class according to its self-aminoacylation; the ranges are bin 1: < 2; bin 2: ≥ 2 and < 6; bin 3: ≥ 6

Solved cases below.
Band of CUACUUGAAUCAAUCGGUCUG [Fam1A.1 aminoacylation ribozyme variant] ?
bin 1

Band of AAGUAUGCUAAUAUUCGCAAG [Fam3.1 aminoacylation ribozyme variant] ?
bin 2

Band of AUUCAACUAGGUCAUCGCGUG [Fam2.2 aminoacylation ribozyme variant] ?
bin 3

Consider the additional sequence presented here.
Band of AUUACCCUGGCCAUCGAGUCA [Fam2.1 aminoacylation ribozyme variant] ?
bin 1

----------
# Tested on: biotinyl-Met-oxazolone
# Test summary: self-aminoacylation, catalytic enhancement (BMO) (fold over background); higher = more active; k-Seq, kA / k0A0; sequences stand for … in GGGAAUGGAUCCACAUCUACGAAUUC…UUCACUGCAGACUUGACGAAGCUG
This sample holds only a part of the variants without activity.
Please respond with reported self-aminoacylation for every item in the list.

Answered examples (3):
The sequence listed as AAGUUUGAUAAUGGUCGCAAG [Fam3.1 aminoacylation ribozyme variant] shows self-aminoacylation equal to 0.785

The sequence listed as AUUACCCGGGUCAUCGUGUGA [Fam2.1 aminoacylation ribozyme variant] shows self-aminoacylation equal to 4.88

The sequence listed as CUACUUCAAAAAAUCGAUCUG [Fam1A.1 aminoacylation ribozyme variant] shows self-aminoacylation equal to 0.601

Record self-aminoacylation for all entries; do not skip any.
1. AUUCACCAAGGUCACCGGGUG [Fam2.2 aminoacylation ribozyme variant]
2. AUCACCCUGGUCAUCGAGUUA [Fam2.1 aminoacylation ribozyme variant]

8.25
2.93

----------
Please respond with reported self-aminoacylation for every item in the list.
# System: biotinyl-Trp-oxazolone
# Test summary: self-aminoacylation, catalytic enhancement (BWO) (fold over background); higher = more active; k-Seq, kA / k0A0; sequences stand for … in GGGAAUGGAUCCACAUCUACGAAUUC…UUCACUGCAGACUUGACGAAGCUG
This sample holds only a part of the variants without activity.
Numbers only.

Tested system biotinyl-Trp-oxazolone; self-aminoacylation recorded for AUUACCCUGGUGGUCGAGUGA [Fam2.1 aminoacylation ribozyme variant] was 1.83

Tested system biotinyl-Trp-oxazolone; self-aminoacylation recorded for AUGUUUGCUAAUGGUCGCAAG [Fam3.1 aminoacylation ribozyme variant] was 1.13

Tested system biotinyl-Trp-oxazolone; self-aminoacylation recorded for GUACUUCAAACAAUCGGUCUC [Fam1A.1 aminoacylation ribozyme variant] was 26.5

Record self-aminoacylation for all entries; do not skip any.
1. AUUACCCUGGUUAUCAAGUGA [Fam2.1 aminoacylation ribozyme variant]
2. AUUCACCUAGCUUAUCGGGUG [Fam2.2 aminoacylation ribozyme variant]

3.4
2.2

----------
# Tested on: biotinyl-Phe-oxazolone
# Test summary: self-aminoacylation, catalytic enhancement (BFO) (fold over background); higher = more active; k-Seq, kA / k0A0; sequences stand for … in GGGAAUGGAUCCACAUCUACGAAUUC…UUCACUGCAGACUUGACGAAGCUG
This sample holds only a part of the variants without activity.
Please respond with reported self-aminoacylation for every item in the list.
One number for each entry.

Answered examples (5):
Tested system biotinyl-Phe-oxazolone; self-aminoacylation recorded for GUUCACCAAGGUCAUCGGGUG [Fam2.2 aminoacylation ribozyme variant] was 64.7

Tested system biotinyl-Phe-oxazolone; self-aminoacylation recorded for AUUACCCCGAUCAUCGAGUGA [Fam2.1 aminoacylation ribozyme variant] was 27.4

Tested system biotinyl-Phe-oxazolone; self-aminoacylation recorded for CGACUUCAAACAAUCGGUCUG [Fam1A.1 aminoacylation ribozyme variant] was 102

Tested system biotinyl-Phe-oxazolone; self-aminoacylation recorded for AAGUUUGUUAAUAGUCUCAAG [Fam3.1 aminoacylation ribozyme variant] was 1.62

Tested system biotinyl-Phe-oxazolone; self-aminoacylation recorded for AAGUAUGCUAAUAGUCGGAAG [Fam3.1 aminoacylation ribozyme variant] was 11.1

Record self-aminoacylation for all entries; do not skip any.
1. GAGUUUGCCAAUAGUCGCAAG [Fam3.1 aminoacylation ribozyme variant]
2. CUACUCCGAACAAUCGGUCUG [Fam1A.1 aminoacylation ribozyme variant]
3. AUUCACCUAGAUCAUAGGGUG [Fam2.2 aminoacylation ribozyme variant]
4. AUUAGCCUGUUCAUCGAGUGA [Fam2.1 aminoacylation ribozyme variant]

1: 4.39; 2: 0.826; 3: 13.6; 4: 18

Record self-aminoacylation for all entries; do not skip any.
1. CCACACUUUAAGGAAUCGGUC [Fam1B.1 aminoacylation ribozyme variant]
2. CAACUUCACACAAUCGGUCUG [Fam1A.1 aminoacylation ribozyme variant]
3. CGACUUCAAACAAUCGGUCAG [Fam1A.1 aminoacylation ribozyme variant]
4. AUUCAACUAGGGCAUCGGGUG [Fam2.2 aminoacylation ribozyme variant]
5. CUACUUCAAACAAGCGGACUG [Fam1A.1 aminoacylation ribozyme variant]
6. CACCUUCAAACAAUCGGUCUG [Fam1A.1 aminoacylation ribozyme variant]
7. AUUCACAUAGGUCAACGGGUG [Fam2.2 aminoacylation ribozyme variant]

1: 0.557; 2: 3.02; 3: 8.58; 4: 22.4; 5: 0.818; 6: 98.1; 7: 28.8

Record self-aminoacylation for all entries; do not skip any.
1. AUUCACCUAGGUAAUCGAGUG [Fam2.2 aminoacylation ribozyme variant]
2. CCACACUUCAAUCAAUAGGUC [Fam1B.1 aminoacylation ribozyme variant]

1: 2.87; 2: 1.11

----------
# System: biotinyl-Met-oxazolone
# Test summary: self-aminoacylation, catalytic enhancement (BMO) (fold over background); higher = more active; k-Seq, kA / k0A0; sequences stand for … in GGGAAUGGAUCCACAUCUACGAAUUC…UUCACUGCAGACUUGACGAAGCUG
Fewer inactive variants are shown than the library holds.
Values of self-aminoacylation greater than or equal to 3 map to met; values below map to not met.

Solved cases below.
Textbook exercise: given the entry CCACACGUCAAACAAUCGGUC [Fam1B.1 aminoacylation ribozyme variant] , state whether its self-aminoacylation is greater than or equal to 3.
not met

Textbook exercise: given the entry CCACACUGCAAGCAAUCAGUC [Fam1B.1 aminoacylation ribozyme variant] , state whether its self-aminoacylation is greater than or equal to 3.
not met

Textbook exercise: given the entry AUUCCUCUGGUCAUCGAGUGA [Fam2.1 aminoacylation ribozyme variant] , state whether its self-aminoacylation is greater than or equal to 3.
met

More entries:
Textbook exercise: given the entry AUUCCCGUGGUCAUCGAGUGA [Fam2.1 aminoacylation ribozyme variant] , state whether its self-aminoacylation is greater than or equal to 3.
met

Textbook exercise: given the entry CUACUUCACACAGUCGGUCUG [Fam1A.1 aminoacylation ribozyme variant] , state whether its self-aminoacylation is greater than or equal to 3.
not met

Textbook exercise: given the entry AUUAACCUAGGUCAUCGGGUU [Fam2.2 aminoacylation ribozyme variant] , state whether its self-aminoacylation is greater than or equal to 3.
met

Textbook exercise: given the entry AUUACCCUGAUCAUCCAGUGA [Fam2.1 aminoacylation ribozyme variant] , state whether its self-aminoacylation is greater than or equal to 3.
met

Textbook exercise: given the entry CUCCUUCAAACGAUCGGUCUG [Fam1A.1 aminoacylation ribozyme variant] , state whether its self-aminoacylation is greater than or equal to 3.
not met
